Assignment: determine reported LC50 at 24 h for the given compounds.
test: Toxicity in Artemia salina larvae after 24 hrs; assay type: organism-based; conditions: in vivo
One number for each entry, in µg/mL.

COc1ccc2c(c1)OC[C@H]1Oc3cc(O)ccc3C(c3cc([C@@H]4COc5cc(O)ccc5C4)ccc3OC)[C@@]21O (stereo partly drawn) ... 244
COc1cc2c(cc1OC)[C@]1(O)C(=O)c3ccc(O)cc3O[C@@H]1CO2 ... 284

With those in mind, consider the next compound.
stdin: Request the reported LC50 at 24 h associated with `COc1ccc2c(c1)OC[C@H]1Oc3cc(O)ccc3C(=O)[C@@]21O`
stdout: 50.7
